system: T1, Soluble CD28-Ig (extracellular domain of human CD28 fused to the Fc portion of human IgG1) (human, UniProt P10747 19-152, biotin-conjugated (NHS-biotin) in the FACS binding assays)
T1 construct: extracellular domain; bought from R&D Systems; also called sCD28-Ig; CD28-Ig Fc; not shown: Fc portion of human IgG1
assay summary: competitive FACS on transfected cells, biotin-sCD28-Ig with FITC-sCTLA-4-Ig; grade 0-2 of CD28/CTLA-4 ratio vs WT hB7-1
value kind: Binding Score
Form: value (number only, do not type unit).

# count of solved cases: 2
The measured Binding Score associated with Round 2 CD28G2-8 (ligand) ITPKSVTKRVKETVMLSCDYNTSTEELTSLRIYWQKDSKMVLAILPGKVQVWPEYKNRTITDMNDNPRIVILALRLSDSGTYTCVIQKPVLKGAYKLEHLASVRLMIRADFPVPSINDLGNPSPNIRRLICSTSGGFPRPHLYWLENGEELNATNTTVSQDPGTELYMISSELDFNVTNNHSIVCLIKYGELSVSQIFPWSKPKQEPPIDQLPFWVIIPVSGALVLTAVVLYCLACRHVARWKRTRRNEETVGTERLSPIYLGSAQSSG reads 1

The measured Binding Score associated with Round 2 CD28D11-1 (ligand) ITPKSVTKRVKETVMLSCDYNTSTEELTSLRIYWQKDSKMVLAILPGKVQVWPEYKNRTITDMNDNPRIVILALRLSDSGTYTCVVQKNENGSFRREHLTSVTLSIRADFPVPSITDIGHPAPNVKRIRCSASGDFPEPRLAWMEDGEELNAVNTTVDQDLDTELYSVSSELDFNVTNNHSIVCLIKYGELSVSQIFPWSKPKQEPPIDQLPFWVIILVSGALVLTAVVLYCLACRHVARWKRTRRNEETVGTERLSPIYLGSAQSSG reads 2

Now for another entry.
The measured Binding Score associated with Round 2 CD28D5-6 (ligand) ITPKSVTKRVKETVMLSCDYSTSTEELTSLRIYWQKDSKMVLAILPGKVQVWPEYKNRTITDMNDNPRIVILALRLSDSGTYTCVIQKPVLKGAYKLEHLTSVRLMIRADFPVPTINDLGNPSPNIRRLICSTSGGFPRPHLYWLENGEELNATNTTLSQDPETKLYMISSELDFNMTSNHSFLCLVKYGDLTVSQSFYWQESKPTPSANQHLTWTIIIPVSAFGISVIIAVILTCLTCRNAAIRRQRRENEVEMQSCSQSP reads 0
